B1: Twister Ribozyme (parent)
chain: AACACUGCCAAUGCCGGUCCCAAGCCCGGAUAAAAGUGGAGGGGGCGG

- Variants of: B1
- Procedure Summary: self-cleavage, relative activity (ratio to wild type); higher = more cleavage; co-transcriptional
Measurement Name: self-cleavage
Numbers only.

> print(dat)
   alteration  measurement.name  assay.result
1   G41U C46G     self-cleavage         0.509
2   C21A G44U     self-cleavage         0.108
3   A10G C46A     self-cleavage         0.939

Please give self-cleavage for each item listed below.
1. G39U G45A
2. A4G U6C
3. G24A U31A

[A]
1. 0.151
2. 0.104
3. 0.106
